Where do these numbers come from? They come from patent US20210040232A1.

target: T1, human CTLA-4 (amino acids M1-N223) on stably transfected VI-fibroblast cells (human, UniProt P16410 36-223); assay: ECL cell binding, VI-fibroblast/hCTLA-4 cells;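 further: antibodies bound to the cells on carbon electrode plates, detected via SULFO-TAG anti-IgG secondary (1 h, RT), electrochemiluminescence read as RLU over a concentration range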
T1 construct: also called VI-fibroblast/hCTLA-4
T1 sequence (P16410 36-223 limits assumed): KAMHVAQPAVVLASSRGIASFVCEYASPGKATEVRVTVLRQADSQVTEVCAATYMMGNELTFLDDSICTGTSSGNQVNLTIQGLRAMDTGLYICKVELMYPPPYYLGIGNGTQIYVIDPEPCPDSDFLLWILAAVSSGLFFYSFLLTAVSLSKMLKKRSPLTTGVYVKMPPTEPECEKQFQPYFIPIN

binder	EC50, nM
H2M20369N (antibody, mouse IgG2, V domains shown, hybridoma antibody, human variable domains, mouse IgG2 Fc (H2M)) VH: QVQLVQSGTEVKRPGASVKVSCKASGFTFTGYYIYWVRQAPGEGLEWMGWINPHSGGTKYAQKFQGRVTLTRDTSINTAYLDLISLRSDDTAVYYCARIGGGGYSSYFDYWGQGTLVTVSS VL: DIQLTQSPSSLSASVGDRVTITCRASQTISTYLNWYQQKPGNAPKLLIYAASSLQSGVPSRFSGRGSGTDFTLTISSLQPEDFATYYCQQGYTTPPITFGQGTRLEIK	0.9
H1H19313P (antibody, human IgG1, V domains shown) VH: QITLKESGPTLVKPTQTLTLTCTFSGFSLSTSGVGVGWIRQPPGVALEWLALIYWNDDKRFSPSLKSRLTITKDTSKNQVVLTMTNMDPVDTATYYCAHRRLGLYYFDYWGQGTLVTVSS VL: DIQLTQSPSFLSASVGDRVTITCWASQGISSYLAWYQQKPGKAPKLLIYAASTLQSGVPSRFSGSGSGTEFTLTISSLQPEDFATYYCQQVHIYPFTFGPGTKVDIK	0.16
H2M20375N (antibody, mouse IgG2, V domains shown, hybridoma antibody, human variable domains, mouse IgG2 Fc (H2M)) VH: QLQLQESGPGLVKPSETLSFTCTVSGGSISSNYYYWGWVRQSPGKGLEWIGSIYHTGNAYDNPSLKSRVTISVDTSKNQFSLNLNSVTAADTAIYYCARHHSSSSWWYFDVWGRGTLVIVSS VL: EIVLTQSPDTLSLSPGERATLSCRASQTVSNSHLAWYQQKPGQAPRLLIYGTSSRATGIPDRFSGSGSGTDFSLTIIRLEPDDFAVYFCQQHESSPPTFGQGAKLEIK	0.19
